List of Ki tested on 5-hydroxytryptamine receptor 2A (Homo sapiens, UniProt P28223).
Sequence (P28223 whole entry): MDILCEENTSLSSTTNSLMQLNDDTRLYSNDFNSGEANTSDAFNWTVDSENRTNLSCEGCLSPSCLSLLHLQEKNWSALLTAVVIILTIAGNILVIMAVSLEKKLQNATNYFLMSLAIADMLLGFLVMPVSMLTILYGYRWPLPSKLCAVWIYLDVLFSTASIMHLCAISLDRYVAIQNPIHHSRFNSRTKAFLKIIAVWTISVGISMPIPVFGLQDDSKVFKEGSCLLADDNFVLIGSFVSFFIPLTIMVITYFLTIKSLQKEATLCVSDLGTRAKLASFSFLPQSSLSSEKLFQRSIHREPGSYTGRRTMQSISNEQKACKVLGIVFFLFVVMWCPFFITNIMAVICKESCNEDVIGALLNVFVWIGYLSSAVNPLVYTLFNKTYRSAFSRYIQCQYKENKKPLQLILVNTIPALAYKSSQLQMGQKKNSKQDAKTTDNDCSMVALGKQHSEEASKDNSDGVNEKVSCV
property_name: Ki (nM)

O=C1CC(CN2CCC(c3noc4cc(F)ccc34)CC2)Cc2occc21 (racemic); 5.5
O=C1C[C@H](CN2CCC(c3noc4cc(F)ccc34)CC2)Cc2occc21; 5.13
O=C1CC(CN2CCC(C(=O)c3ccc(F)cc3)CC2)Cc2occc21 (configuration not stated); 95.5
COC(=O)c1coc2c1C(=O)CC(CN1CCC(c3noc4cc(F)ccc34)CC1)C2 (configuration not stated); 1.55
COC(=O)c1coc2c1C(=O)CC(CN1CCC(C(=O)c3ccc(F)cc3)CC1)C2 (configuration not stated); 25.7

[1] O=C1C[C@@H](CN2CCC(c3noc4cc(F)ccc34)CC2)Cc2occc21
[2] O=C1CC(CN2CCC(C(=O)c3ccc(F)cc3)CC2)Cc2oc(-c3ccccc3)cc21 (configuration not stated)
input: Which entry has a larger number for Ki, 1 or 2 ? Reply briefly: the label of your chosen item.
output: 2
(2: 17.4 nM, 1: 2.51 nM)

Origin of values: ChEMBL document CHEMBL1140101
